Attribution: the supplement of paper PMC9732359

# assayText: protein stability index of a GFP-peptide fusion (yeast GPS) (PSI 1-4); higher = more stable; sorted into four equal gates, so the index is relative within each strain
# statedConditions: pdr5∆
assayEndpoint: protein stability index
Please state the value as a number alone, without comment.

**Query** Form field: reported protein stability index of FNYGKLPLPPSVEWMKV [SIN4]
**Result** 2.93

**Query** Form field: reported protein stability index of TRINGLNSNNSIIGNKN [REC8]
**Result** 3.04

**Query** Form field: reported protein stability index of KANIFQVIKNEVCAKMP [SSN2]
**Result** 2.27

**Query** Form field: reported protein stability index of QPPTNVQPTIGQLPQLP [SNF5]
**Result** 3.12

**Query** Form field: reported protein stability index of ELNEEKKRLMDIDDELN [SMC2]
**Result** 3.42

**Query** Form field: reported protein stability index of VNQEFIFEAISLSDELN [YJL039C/NUP192]
**Result** 2.65

**Query** Form field: reported protein stability index of MDRTQTFIKDCLFTKCL [POP4]
**Result** 1.75

**Query** Form field: reported protein stability index of VARFLHFNGIRRLDALV [ITC1]
**Result** 3.45

**Query** Form field: reported protein stability index of YWYEQDSAKEWPQSKNC [RPB3]
**Result** 3.3

**Query** Form field: reported protein stability index of SFHVQKKTCSSCGYPAA [RPL37A]
**Result** 2.13

**Query** Form field: reported protein stability index of ETLKRDRKQSQATNATN [ARP7]
**Result** 2.86

**Query** Form field: reported protein stability index of RFELHGDMTNSDAQSNL [REC8]
**Result** 3.58

**Query** Form field: reported protein stability index of PLLLVGLDKFSNIDIRV [RPS16A]
**Result** 1.76

**Query** Form field: reported protein stability index of KFPPPTPLLENISISTS [BRR2]
**Result** 1.84

**Query** Form field: reported protein stability index of LLAKAVANQTSATFLRI [RPT2]
**Result** 2.27

**Query** Form field: reported protein stability index of WGAETDELSMIMEHFSQ [RPS12]
**Result** 3.12

**Query** Form field: reported protein stability index of LLDILVKGETRIQNRVK [PRP8]
**Result** 2.98

**Query** Form field: reported protein stability index of SKLSQEFLYPHLNFPNV [SNF12]
**Result** 2.96

**Query** Form field: reported protein stability index of FSTNVKDEIVLSGNSVE [RPL9A]
**Result** 2.18

**Query** Form field: reported protein stability index of MHKQLAYILAAQKTSFE [RPN1]
**Result** 2.46

**Query** Form field: reported protein stability index of KTLKRMIKESSTANPNI [POP1]
**Result** 2.76

**Query** Form field: reported protein stability index of EAAKPSLSFGSGSAGAN [YJL041W/NSP1]
**Result** 2.81

###

# assayText: protein stability index of a GFP-peptide fusion (yeast GPS) (PSI 1-4); higher = more stable; sorted into four equal gates, so the index is relative within each strain
# statedConditions: san1∆
Provide the reported protein stability index of each item.

**Query** Form field: reported protein stability index of LSIWIKNYPEYFLKVTF [IRR1]
**Result** 2.2

**Query** Form field: reported protein stability index of LNIRIQTYGETTAVDAL [RPC19]
**Result** 1.19

**Query** Form field: reported protein stability index of SIQPIESNIKMTLEDNN [SSN2]
**Result** 2.81

**Query** Form field: reported protein stability index of YNNKVGVAASQGSMSER [SIR2]
**Result** 2.49

**Query** Form field: reported protein stability index of IDVTFTKVNNQLIKVAV [RPL9A]
**Result** 1.75

**Query** Form field: reported protein stability index of LGNTSSVANTPSEIPDA [SWI3]
**Result** 3.03

**Query** Form field: reported protein stability index of YSWLLFEASCMEGQKLD [YJR042W/NUP85]
**Result** 1.39

**Query** Form field: reported protein stability index of IRQAIAKGLVAYHQKYV [RPS16A]
**Result** 1.41

**Query** Form field: reported protein stability index of CDYYNTFLLNNKNIDIG [RPN2]
**Result** 2.85

**Query** Form field: reported protein stability index of TLNPKTGHLFLKIIHTS [PRP8]
**Result** 1.77

**Query** Form field: reported protein stability index of WRLLFIDKFIMVVQKYK [GRR1]
**Result** 1.66

**Query** Form field: reported protein stability index of QPTIRKDGLKLVGSWKK [RPO21]
**Result** 3.3

**Query** Form field: reported protein stability index of KSNVIDSMLFVFGFRAN [SMC4]
**Result** 2.16

**Query** Form field: reported protein stability index of TLLYEQIIQRDKINKYS [SNF5]
**Result** 3.19

**Query** Form field: reported protein stability index of SPVQDWNLLRSLYIFFT [YML103C/NUP188]
**Result** 2.25

**Query** Form field: reported protein stability index of NLLKFITSNHKSSVPGS [RPN3]
**Result** 2.07

**Query** Form field: reported protein stability index of KMKIQETISKLNEYKRE [SMC2]
**Result** 2.35

**Query** Form field: reported protein stability index of DPKFVNSLLAKLKDSKK [YML103C/NUP188]
**Result** 1.99

**Query** Form field: reported protein stability index of CINELDNWNAPLIMATC [RPO31]
**Result** 3.3

**Query** Form field: reported protein stability index of FEPASRLQGIKLLDNIQ [COR1]
**Result** 2.64

**Query** Form field: reported protein stability index of TPAAATSPIDIREKVAK [SNF2]
**Result** 2.63

**Query** Form field: reported protein stability index of PLFFVDLKLLFNTEAEQ [RGR1]
**Result** 3.19

**Query** Form field: reported protein stability index of AIQFVKENELLFGEKSI [YCS4]
**Result** 2.58

**Query** Form field: reported protein stability index of PGSSITETEVEREQPQE [SRB4]
**Result** 3.07

**Query** Form field: reported protein stability index of VMRNTYNTRKNAVTAAA [GAL11]
**Result** 2.11

**Query** Form field: reported protein stability index of KRLGPKRANNIRKFFGL [RPS6A]
**Result** 3.25

**Query** Form field: reported protein stability index of HKISFSGTKSEVLTYVN [YJL039C/NUP192]
**Result** 2.39

**Query** Form field: reported protein stability index of LKKLEKEYELLTLQEDY [RPT3]
**Result** 2.6

**Query** Form field: reported protein stability index of EQSNSRKRTRSEAEQID [YCG1]
**Result** 2.81

**Query** Form field: reported protein stability index of QTKRWPTMYTRLCICSG [SIN4]
**Result** 1.51

**Query** Form field: reported protein stability index of MGKKTFREWQYFKLSIT [POP8]
**Result** 1.47

**Query** Form field: reported protein stability index of HIVQDCTLTADGAYALS [ASC1]
**Result** 2.52

**Query** Form field: reported protein stability index of RIRKLTGQNFLTSNISS [REC8]
**Result** 1.57

**Query** Form field: reported protein stability index of GPIKTPVGACATSVESV [FAS2]
**Result** 2.15

**Query** Form field: reported protein stability index of TGITKKDEDEEADEDMK [PRE9]
**Result** 3.06

**Query** Form field: reported protein stability index of GAHGYSGFYTFSLLDHH [PRE1]
**Result** 2.92

**Query** Form field: reported protein stability index of KGGKGLGKGGAKRHRKI [HHF1]
**Result** 3.65

**Query** Form field: reported protein stability index of GKLAKPRQLHNTHWGLV [RPB2]
**Result** 2.61

**Query** Form field: reported protein stability index of EPPLSYEQHIENIEPLD [PRP8]
**Result** 2.32

**Query** Form field: reported protein stability index of AKNRILASKIKQYERLR [RRI1]
**Result** 2.37

**Query** Form field: reported protein stability index of NLTRGINLRKVAEKMNG [RPT6]
**Result** 2.31

**Query** Form field: reported protein stability index of AMTAAEHGLHAPAYAWS [CYT1]
**Result** 2.8

**Query** Form field: reported protein stability index of SCQIAQPYEDRPFEGLF [RRP45]
**Result** 3.15

**Query** Form field: reported protein stability index of KVSYAVKKPQKSKTSTG [SNM1]
**Result** 2.66

**Query** Form field: reported protein stability index of GQMAPIGTGAFDVMIDE [RPO21]
**Result** 2.37

**Query** Form field: reported protein stability index of SNLEKLLFINSSKLVDV [YML103C/NUP188]
**Result** 1.83

**Query** Form field: reported protein stability index of TNKISPKDFSPNFTGID [SSN2]
**Result** 2.9

**Query** Form field: reported protein stability index of KSVLGDGKKHSVFYTIL [RPO31]
**Result** 3.02

**Query** Form field: reported protein stability index of GALKGASDGGLYVPHSE [RPL5]
**Result** 2.83

**Query** Form field: reported protein stability index of DHVDGSSEFVSQDTKVI [RRP46]
**Result** 2.44

**Query** Form field: reported protein stability index of MGGPKQKGITSYAVSPY [QCR8]
**Result** 2.25

**Query** Form field: reported protein stability index of VLDHQRAIPFRRFNSSI [RPL17A]
**Result** 1.67

**Query** Form field: reported protein stability index of ERLDKDKDRDTRRKRRQ [SNF5]
**Result** 2.9
